target: MAGE-A3 TCR (TCR-1); assay: Equilibrium binding of TCR to peptides (ELISA); conditions: Table 2; TCR-1 titrated on captured peptide
MEASURED PROPERTY: EC50 (nM)

- BIOSEQUENCE: "GGNQCWEVYDQEFCSL [Peptide-9]"
  MEASURED PROPERTY: "EC50"
  UNIT SPEC: "nM"
  NUMERIC READOUT: 50

###

target: MAGE-A3 TCR (TCR-1); assay: Equilibrium binding of TCR to peptides (ELISA); details: Table 3
MEASURED PROPERTY: EC50

- BIOSEQUENCE: "ESDPIVAQY [Peptide-35, Titin peptide, linear control absent MHC presentation, reference compound]"
  EXPERIMENTAL SYSTEM: "MAGE-A3 TCR (TCR-1)"
  MEASURED PROPERTY: "EC50"
  RESULT: "> 10 µM"
- BIOSEQUENCE: "EVDPIGHLY [Peptide-34, MAGE-A3 antigen peptide, linear control absent MHC presentation, reference compound]"
  EXPERIMENTAL SYSTEM: "MAGE-A3 TCR (TCR-1)"
  MEASURED PROPERTY: "EC50"
  RESULT: "> 10 µM"
